Each entry below carries its reported apparent KD of K4 kissing-loop reporter.
- System: K4 kissing-loop RNA reporter;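 also: bound reporter read as fluorescence of individual clusters on recovered sequencing chips by microscopy, with normalized cluster intensities fitted with a binding model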
- Assay overview: apparent KD of K4 kissing-loop reporter; higher = weaker reporter binding
- Measurement parameters: Eterna round: R107; input ligand: arginine 13.2 mM
Value type: apparent KD of K4 kissing-loop reporter

{"columns": ["Sequence data", "Study target", "Result value"],
 "data": [
  ["CCUUCUCUUGAUAGUGAUGUUAUCGAGGACAAGGAUAUCAUCUCAAUGAGAAGGUGUCCUUGAUAACAUGGAGGUCUGAAACAGA [Omei KL FMN A Exc C v9]", "K4 kissing-loop RNA reporter", "0.355 µM"],
  ["CAGAUGUAGGCGGCCGCCACUCUCAUUACCGUACGCAAGUAUGAUUAGAAGUGAUGUUUCUCGGUGAGGACCGGGCCAUUCCCGA [theeternabot_sameState_KL_Trp_B_27]", "K4 kissing-loop RNA reporter", "0.551 µM"],
  ["CGCUUGGGUGCGGCCGCCACUAGAGCGUGACACGGGUCCCAAAAGGGUGCAGUGAUGUUGCAGCCUAGGACCGGGCACCUCUGGC [Beveesbe]", "K4 kissing-loop RNA reporter", "0.083 µM"],
  ["UCCUGCAGUCUGCCACGAAAGUGGAUUGAUACCAGAGUCGAAAGACUCCCUUGGCAGCGAGUGAUGUUCGAAGCAGGUAAAUAAA [MatMod 1 - Jieux - Exclusion - Theophylline A]", "K4 kissing-loop RNA reporter", "0.204 µM"],
  ["CGGAGUGAUGUUCCUUUUAUUAAUUAUUAACGAGGACCGGUACGGCCGCCACUCGAUUUAGCUUUUAUUUAAUGCUUGGAUGUUU [JR_SSTryptoA_Sub003]", "K4 kissing-loop RNA reporter", "0.224 µM"],
  ["AACACUCAGAGAGUGAUGUUCUCUAAUAAACGAGGACCGGUACGGCCGCCACUCGAAUAAGAGUGAGUCCUACGAAAAGUAGGAC [Omei inspired 5 #OpenEnded]", "K4 kissing-loop RNA reporter", "0.726 µM"],
  ["UGGACAUGACUCGAUAAGAGUCAAUGGGAUACCAGUGACGAAAGUCACCCUUGGCAGCUCAACUGCCAGUGAUGUUGGUAGUCCA [Astros-Elo-mod#2]", "K4 kissing-loop RNA reporter", "0.129 µM"],
  ["UACGCCACAGACGUGGAGUACCUUGGGUCGAAGGAUAUCAGCAUUGUGAGAAGGUCGCCGAUUCUAAGUGAUGUUUAGAUCAGGG [theeternabot_sameState_KL_FMN_A_2]", "K4 kissing-loop RNA reporter", "0.275 µM"],
  ["UAGUCAUACAGAGGAUAUCGUAUGAGUGAUGUUCAUACGACAUAAUCAAAUUGUAUUGAUGUUCGACGAGAAGGCUGUAUGACUA [FMN B Ex t1]", "K4 kissing-loop RNA reporter", "0.103 µM"],
  ["UGUAUGUGAUUUGAUACCAGACCAGCUGGUGGUUCACGAGUGAUGUUCGUGUUGGUUUGGGUCCCUUGGCAGCAAAUCGCAUACU [KL-SSTheoB12]", "K4 kissing-loop RNA reporter", "0.121 µM"],
  ["UGUCAUUGGUCGGCCGCCACUUUAUAUGGAGUGAUGUUUUGUAAAUUGUGUUGAAAGGUGUGGUAAAGGACCGGGACCGAUGACU [FiskerMod 26 - Jieux - Same State - Tryptophan B]", "K4 kissing-loop RNA reporter", "0.637 µM"],
  ["UUGAGCCGGACGGAAGUCCGGCUCUGCGAGCGAGGACCGGUACGGCCGCCACUCGGUGCAGUGAUGUUGCAUGGCCGCAAGGCCG [#2 Exclusion - Tryptophan A Attempt #4 (HarryS)]", "K4 kissing-loop RNA reporter", "0.232 µM"],
  ["CGUUUAUAGCAGGAUACCAGUACCCAUAAAGUACGUUAAUAGUAGAGUGAUGUUCUAAAGUACCCUUGGCAGCUUAGAGUGAGUG [ExTheophylB.Q]", "K4 kissing-loop RNA reporter", "0.159 µM"]
]}
